melting point reference
Just the number in °C, nothing appended.

* NC(c1ccc(Cl)cc1Cl)P(O)O (centres undefined) | 244

Request: Given "CC(C)(C)n1cnc(-c2ccc(F)cc2)c1-c1ccncc1" , respond with its melting point.
Response: 199

* * *

Property: melting point

Study these solved cases before continuing.
- CCOC(=O)c1cn(CC)c2occc2c1=O: 158 to 160 °C
- CCCCc1c(/C=C/C(=O)Oc2ccc([N+](=O)[O-])cc2)cc(OC)c2ccc(OC)cc12: 144 to 146 °C
- COC(=O)Cc1csc2cc(-c3ccccc3)c(C=O)n12: 118 to 120 °C
- Cc1ccc(C(=O)Nc2cccc(C(F)(F)F)c2)cc1-c1ccc2ncsc2c1: 102 to 104 °C
- CSc1ccc(OC(=O)OCc2ccccc2Cl)cc1: 49.5 to 50 °C
- Cc1ccc(OCc2ccccc2)cc1NCc1ccccc1: 66 to 67 °C

Lab note: next molecule to report on.
Request: Give recorded melting point. "CC(C)C[C@H](N)C(=O)NCCNC(=O)OCc1ccccc1"
Response: 148 to 149 °C

* * *

Property: melting point

# count of solved cases: 5
* COc1ccc(CC(C)=O)cc1S(=O)(=O)N1CCSCC1 | 118 to 122 °C
* COc1ccc(Nc2nc(Cl)nc(Cl)n2)cc1F | 134 °C
* CCOCc1nc2c(N)nc3cc(OCCNC(=O)OC(C)(C)C)ccc3c2n1CC1COC(C)(C)O1 (stereo not given) | 82 to 84 °C
* O=C(Cc1ccccc1SCc1ccccc1)Nc1ccccc1 | 81 to 83 °C
* O=C(O)c1ccccc1OC(F)(F)C(F)F | 158 to 160 °C

Request: Return value of melting point for input "O=C1Nc2ccccc2N(C(=O)Cl)c2c1csc2Cl" , no commentary.
Response: 158 to 161 °C

Request: Tell me its melting point given "CCN1CCNC(=O)c2ccc(Nc3ncc(Cl)c(Nc4ccccc4-c4nccn4C)n3)cc21" as the entry.
Response: 143 to 151 °C

Request: Note down melting point recorded for "O=c1[nH]c(-c2ccccc2)ncc1[N+](=O)[O-]"
Response: 264 to 266 °C

Request: Assign melting point to the following record: "CS(=O)(=O)c1ccc(-c2cnc3cnc(-c4ccc(O)cc4)nc3c2)cc1"
Response: 306 to 307 °C

Request: Identify melting point associated with the molecule "CCCS(=O)(=O)Nc1cc(OC[C@@H](O)CNC2CCN(c3ccc(C(=O)OCC)cc3)CC2)ccc1O"
Response: 63 to 65 °C

* * *

Property: melting point (°C)

• CCc1ccc(C(=O)N[C@H](Cc2ccccc2)C(=O)O)cc1 = 166
• CCCCN1CCn2c1nc(C(=O)NCc1ccc(F)cc1-n1cnc(C)n1)c(O)c2=O = 214

* * *

Measured melting point, listed per entry.

Some compounds with recorded melting point:
• Cc1cc(-c2ccc(Cl)cc2)sc1C(=O)O = 245 to 246 °C
• COc1cccc(CNc2ncnc3c2sc2nc(N(C)C)c4c(c23)C(C)(C)CC4)c1OC = 91.9 to 93.6 °C

Now for the compound whose melting point we want.
Request: Please indicate melting point recorded for "O=Cc1ccc(CCc2ccc(C=O)cc2)cc1"
Response: 121 to 122 °C

* * *

Property: melting point

Here's what some known entries look like.
* CC(=O)ON=C(c1ccccc1)c1cc(C(C)(C)C)c(O)c(C(C)(C)C)c1 | 136 to 137 °C
* CC(=O)C1=CCC2C3CCC4CC(O)CCC4(C)C3C(OC(=O)CCl)CC12C (stereo not drawn) | 160 to 162 °C

The record that follows has no melting point shown yet.
Request: Give a short answer stating reported melting point for "COc1cc(Cc2cnc(NCCSCc3cc(CN(C)C)ccn3)[nH]c2=O)ccn1" .
Response: 65 to 74 °C

* * *

Recorded melting point, one value per entry.

These recorded examples may help you get a feel for the data.
* C=CC(=O)OCCN(CCOC(=O)C=C)c1ccc(N=Nc2snc(C)c2C#N)c(NC(=O)C(C)C)c1 | 92 to 94 °C
* CC(C)Cc1nn(C)c(=O)c2cc(Cc3cccc4ccccc34)oc12 | 73 to 75 °C
* O=C1OC(CCO)c2ccccc21 (centres undefined) | 122 to 124 °C

Request: In one line, give reported melting point of the entry "CN(C)C(=NC1CCCCC1)C(N)=S" .
Response: 116 to 120 °C

Request: Return reported melting point. Input compound: "Cc1cccc(NC(=O)Nc2c(-c3ccccc3)c3cc(Cl)ccc3c(=O)n2C)c1"
Response: > 300 °C

Request: Report melting point for CSc1ccc(C(CC2CCCO2)C(=O)O)cc1 (centres undefined)
Response: 105 to 107 °C

Request: Using the record for "CCCCCCCCCCCCCCCCNc1ccc(C(=O)NS(=O)(=O)C(F)(F)F)cc1" , state its measured melting point.
Response: 172 to 174 °C

Request: Provide only the value of recorded melting point for "CC(C)(C)c1csc(C(C#N)=C(O)c2c(F)cccc2F)n1"
Response: 207 to 209 °C

Request: Please supply the value of reported melting point for the item COc1ccc(N2CCN(c3c(C)c(C)c4c(c3C)C(N3CCOCC3)C(C)(C)O4)CC2)cc1 (centres undefined)
Response: 181 to 182 °C

Request: Hello, please tell me recorded melting point for this one: CN1C(=O)C2(COc3cc4c(cc32)OCCO4)c2c(-c3cnn(C)c3)cccc21 (centres undefined)
Response: 220 to 222 °C

Request: Please give the documented melting point of "CC(C)(C)OC(=O)N(C[C@H](O)COc1ccc(O)cc1)C1CNC1"
Response: 130 to 134 °C

Request: Supply melting point value. Item: CC1CC(C)(CO)CN1c1ccc(C#N)c2ccccc12 (centres undefined)
Response: 100 to 101 °C

Request: Name the recorded melting point of the item O=C(Nc1cnc2c(c1)nc1n2CCC1O)c1cc2cc(C(F)(F)F)cnc2n1Cc1cccc(F)c1 (single isomer, unassigned; (-)) in your answer.
Response: 279 to 280 °C

Request: // Input: CCCCCCCCCCCCCCCCC(O)CNCCO (centres undefined) . Output its melting point only.
Response: 84.5 to 86 °C

* * *

Property: melting point

Example entries and their recorded answers appear below.
* CSC(Oc1cc(Cl)c2ncc(Br)cc2c1)C(=O)NC(C)(C)C (stereo not given) | 160 to 161 °C
* CN1C(=O)[C@H](NC(=O)C2CCC3(CC2)CCN(C(=O)OC(C)(C)C)CC3)N=C(c2ccccc2)c2ccccc21 | 135 to 138 °C
* O=C(NCC1(c2ccccc2)CCCCC1)Nc1ccc(Cl)cc1 | 164 to 166 °C
* CCCOc1ccccc1-c1nc2cc([N+](=O)[O-])ccc2c(=O)[nH]1 | 138 °C

Request: Retrieve melting point measured for CCCS(=S)c1cccc(OS(C)(=O)=O)n1 (stereo not given) and print it.
Response: 51 to 53 °C

* * *

Recorded melting point by entry

- C[N+](C)([O-])c1ccc(/C=C/c2c(F)cccc2F)cc1: 100 to 103 °C
- CNC(=O)c1cnn(-c2ccccc2)c1Cl: 182 to 183 °C
- CCCCC(CC)COc1cc(CCl)c(OC)cc1CCl (stereo not given): 58 to 60 °C
- O=C(Oc1ccccc1Cl)c1ncn2c1[C@@H]1CCCN1C(=O)c1c(Cl)cccc1-2: 214 to 215 °C

For the next question, use this compound.
Request: Please indicate melting point recorded for "CC(C)=CCOc1ccc(C(=O)C=Cc2ccccc2)c(O)c1"
Response: 164 to 166 °C

* * *

Property: melting point

Worked cases, melting point given:
* CCCCc1nn(-c2cc(C(=O)N(C)CCCC)ccc2Cl)c(=O)n1Cc1ccc(-c2ccccc2S(=O)(=O)NC(=O)c2ccccc2Cl)cc1 | > 90 °C
* Cc1nc(C)c(C(C)(O)c2cccnc2)s1 (configuration not stated) | 108 to 109 °C
* CCCC(=O)NCCc1cc(-c2cccc(C(=O)OC)c2)cc2ccc(OC)cc12 | 86 to 88 °C
* N#Cc1cc(=O)n2nc(S(=O)(=O)Cc3ccccc3)sc2n1 | 214 to 217 °C
* CC1=CCC(=C2C(=O)C3(CS(=O)(=O)O)CCC2C3(C)C)C=C1 (configuration not stated) | 220 °C
* CCOc1cc(N)c(Cl)cc1C(=O)NC[C@H]1CN(CC2CCN(C(=O)N(C)OC)CC2)CCO1 | 127 to 129 °C
* N#Cc1ccc(-c2ccc(OCc3ccccc3)cc2)cc1 | 150 to 152 °C
* CCOC(=O)C1(Sc2ccccc2[N+](=O)[O-])Cc2ccc(N(C)C)cc2NC1=O (configuration not stated) | 174 to 176 °C

Request: // fetch melting point given entry "O=CCCc1ccc2oc(Cc3ccc4ccccc4c3)nc2c1"
Response: 81 to 82 °C

Request: State its melting point: "CS(=O)(=O)c1cccc(-c2cc(N3CCOCC3)cc(Nc3ccc(OC(F)(F)F)cc3)n2)c1"
Response: 233 to 235 °C

Request: Kindly indicate its recorded melting point. Item: "COc1cc(-c2cc(C(F)(F)F)nn2-c2ccc(S(C)(=O)=O)c(F)c2)ccc1-c1cocn1"
Response: 148 to 150 °C

Request: Tell us which melting point value is on record for "CC1(C)[C@@H](CNC(=O)C2CCC(F)(F)CC2)CC[C@@]1(C)NCC(=O)N1C[C@@H](F)C[C@H]1C#N"
Response: 193 to 195 °C
